Test system: NHBE cells
test: Biolog metabolic array: substrate use by NHBE cells with or without CA09 infection
Format: cell-based, human
studyConditions: Control (uninfected) NHBE cells, 8 hr
Assign 590 nm absorbance normalized to zero hour (substrate use), 8 hr to each entry below.
Numbers only.

Example entries begin here.
O=C[C@H](O)[C@@H](O)[C@@H](O)[C@H](O)CO [D-Galactose] ... 2.22
CC(O)CO (stereo not shown) [1,2-Propanediol] ... 1.12
CC(=O)N[C@H]1[C@H]([C@H](O)[C@H](O)CO)OC(O)(C(=O)O)C[C@@H]1O (stereo partly shown) [n-acetyl-neuraminic acid] ... 0.27

Batch of 4 compounds: report 590 nm absorbance normalized to zero hour (substrate use), 8 hr for each.
1. OC[C@@H](O)[C@@H](O)[C@H](O)[C@H](O)CO [D-Mannitol]
2. O=C(O)[C@H](O)[C@@H](O)[C@H](O)[C@H](O)CO[C@H]1O[C@H](CO)[C@H](O)[C@H](O)[C@H]1O [Melibionic Acid]
3. OC[C@H]1O[C@H](OC[C@H]2O[C@H](OC[C@H]3O[C@H](O[C@]4(CO)O[C@H](CO)[C@@H](O)[C@@H]4O)[C@H](O)[C@@H](O)[C@@H]3O)[C@H](O)[C@@H](O)[C@H]2O)[C@H](O)[C@@H](O)[C@H]1O [Stachyose]
4. OC[C@H]1O[C@H](OC[C@H]2OC(O)(CO)[C@@H](O)[C@@H]2O)[C@H](O)[C@@H](O)[C@@H]1O (stereo partly shown) [Palatinose]

1: 0.74; 2: 0.51; 3: 3.67; 4: 2.16

The values you see were collected from patent US11083725B2.
